- Tested on: CEM cells HIV-1 protection, formazan growth assay
- ASSAY: NCI AIDS Antiviral Assay
- TEST_SETTINGS: measured here: growth of uninfected CEM cells
REPORTED_PROPERTY: pIC50
Scale explanation: pIC50 corresponds to minus log10 of a concentration expressed in moles per litre.

Q) Tell me its pIC50 given CCOC(=O)C1=C(OC(OCC)C(C)[Se]c2ccccc2)CCC1 (stereo not given) as the entry.
A) 4.37

Q) Tell me its pIC50 given CC(=O)NNc1nc(C)c(C(=O)/C=C/c2cccc([N+](=O)[O-])c2)s1 as the entry.
A) 4.12

Q) Tell me its pIC50 given COCc1cc(=O)oc2c3c(c4c(c12)OC(C)(C)C=C4)O[C@H](C)[C@@H](C)[C@H]3O as the entry.
A) 3.74

Q) Tell me its pIC50 given COC1OC(CO)C(O)C(OC(C)=O)C1NC(=O)N(CCCl)N=O (stereo not given) as the entry.
A) 3.38

Q) Tell me its pIC50 given CC1=C2C(=C(CBr)OS1(=O)=O)C(=O)c1ccccc12 as the entry.
A) 4.41

Q) Tell me its pIC50 given Cc1ccc(-c2cc(-c3ccco3)c(C#N)c(=S)[nH]2)cc1 as the entry.
A) 3.92

Q) Tell me its pIC50 given CCC[CH2][Sn]1([CH2]CCC)[O]CC([CH2][Sn]([c]2ccccc2)([c]2ccccc2)[c]2ccccc2)[O]1 (stereo not given) as the entry.
A) 7.63

Q) Tell me its pIC50 given COc1ccc2nc3ccccc3c(NCCCN(C)CCCl)c2c1 as the entry.
A) 6.30

Q) Tell me its pIC50 given CC(=O)OC(C#N)CC(C)(C)/[N+]([O-])=[N+](\[O-])C(C)(C)CC(C#N)OC(C)=O (stereo not given) as the entry.
A) 5.44

---

- System: CEM cells HIV-1 protection, formazan growth assay
- ASSAY: NCI AIDS Antiviral Assay
- TEST_SETTINGS: measured here: growth of uninfected CEM cells
REPORTED_PROPERTY: IC50 (µM)
# unit: µM | format: bare number

Q) Tell me its IC50 given CC(C)/C(Cl)=N/OC(=O)Nc1ccc(F)c(Cl)c1 as the entry.
A) 3.31

Q) Tell me its IC50 given CO[C@H]1/C=C/O[C@@]2(C)Oc3c(C)c(O)c4c(O)c(c(/C=N/N5CCNCC5)c(O)c4c3C2=O)NC(=O)/C(C)=C\C=C\[C@H](C)[C@H](O)[C@@H](C)[C@@H](O)[C@@H](C)C(OC(C)=O)[C@@H]1C (some centres not stated) as the entry.
A) 50.1

Q) Tell me its IC50 given COc1ncc(C#CC(=O)c2ccccc2OC)c(OC)n1 as the entry.
A) 0.132

Q) Tell me its IC50 given N#CC1CC(c2cccs2)Nc2ccccc2N1 (configuration not stated) as the entry.
A) 46.8

Q) Tell me its IC50 given CC1(C)CNCC(C)(OCc2ccccc2)C(=O)NC(C)(C)CNCC(C)(OCc2ccccc2)C(=O)N1 (configuration not stated) as the entry.
A) 24.5

Q) Tell me its IC50 given CCc1ccccc1NC(=O)CCc1n[nH]c(=S)o1 as the entry.
A) 67.6

Q) Tell me its IC50 given CCN(CC)c1ccc2cc(C(=O)Nc3cccc4ccccc34)c(=N)oc2c1 as the entry.
A) 12.6

---

Kindly supply the reported pEC50 values for the records listed here.
- System: CEM cells HIV-1 protection, formazan growth assay
- ASSAY: NCI AIDS Antiviral Assay
pEC50: −log10 of the molar value.

Q) Tell me its pEC50 given CCCCCCCCCCCO/N=C\c1c2c(O)c3c(O)c(C)c4c(c3c1O)C(=O)C(C)(O/C=C\C(OC)C(C)C(OC(C)=O)C(C)C(O)C(C)C(O)C(C)/C=C\C=C(\C)C(=O)N2)O4 (stereo not given) as the entry.
A) < 3.70

Q) Tell me its pEC50 given CCC(C)C(CC)(C(=O)O)C(=O)O (stereo not given) as the entry.
A) < 2.88

Q) Tell me its pEC50 given O=C(Nc1ccccc1)c1cc2c(cc1Cl)Sc1nccn1S2(=O)=O as the entry.
A) < 3.70

Q) Tell me its pEC50 given NC1=NN(c2ccccc2)C(=O)C1C(=O)C(=O)Nc1ccc(Cl)cc1 (stereo not given) as the entry.
A) < 3.46

Q) Tell me its pEC50 given Cc1ccccc1NC(=O)CSc1nnc(Cc2ccccc2)o1 as the entry.
A) < 3.58

---

- Tested on: CEM cells HIV-1 protection, formazan growth assay
- ASSAY: NCI AIDS Antiviral Assay
Kindly supply the reported EC50 values for the records listed here.

Q) Report EC50 from CEM cells HIV-1 protection, formazan growth assay testing of C=CCNC(=O)/C=C\C(=O)O
A) > 1620 µM

Q) Report EC50 from CEM cells HIV-1 protection, formazan growth assay testing of CC(C)CCS(=O)(=O)O
A) > 200 µM

Q) Report EC50 from CEM cells HIV-1 protection, formazan growth assay testing of C[C@@H]1[C@@H](c2ccccc2)C12C(=O)NC(=O)NC2=O
A) > 200 µM

Q) Report EC50 from CEM cells HIV-1 protection, formazan growth assay testing of C1=Nc2ccc(cc2)-c2ccc(cc2)N=Cc2ccccc2OCc2cccc(n2)COc2ccccc21
A) > 200 µM

Q) Report EC50 from CEM cells HIV-1 protection, formazan growth assay testing of CN(C)C=Nc1ccc2[nH]c3ccccc3c2c1
A) > 200 µM

Q) Report EC50 from CEM cells HIV-1 protection, formazan growth assay testing of Cc1c(-c2ccccc2)[nH]n(C2=NCCN2)c1=O
A) > 200 µM

Q) Report EC50 from CEM cells HIV-1 protection, formazan growth assay testing of NC(=O)C(=O)c1ncn(Cc2ccccc2)c1N
A) > 200 µM

Q) Report EC50 from CEM cells HIV-1 protection, formazan growth assay testing of CCOC(=O)c1c(-c2ccc(OC)cc2)c(C#N)c(=S)n(C2OC(COC(C)=O)C(OC(C)=O)C(OC(C)=O)C2OC(C)=O)c1-c1ccccc1 (stereo unspecified)
A) > 200 µM

Q) Report EC50 from CEM cells HIV-1 protection, formazan growth assay testing of O=C1C(=O)C(c2ccccc2)Oc2ccccc21 (stereo unspecified)
A) > 200 µM

Q) Report EC50 from CEM cells HIV-1 protection, formazan growth assay testing of CC(C)(C)C(=O)/C=C/c1ccc(-c2ccccc2)cc1
A) > 19.5 µM

Q) Report EC50 from CEM cells HIV-1 protection, formazan growth assay testing of C=C1CC(COc2ccc3ccc(=O)oc3c2)(c2ccccc2)OC1=O (stereo unspecified)
A) > 2 µM

Q) Report EC50 from CEM cells HIV-1 protection, formazan growth assay testing of CC(=O)O[C@]12CCCCCC1C1(O)C(O)CCC[C@H]12 (stereo partly specified)
A) > 200 µM

Q) Report EC50 from CEM cells HIV-1 protection, formazan growth assay testing of CN(C)P(=O)(OP(=O)(N(C)C)N(C)C)N(C)C
A) > 200 µM

Q) Report EC50 from CEM cells HIV-1 protection, formazan growth assay testing of CC(C)(C)OC(=O)C1CCC/C1=N/Nc1ccc([N+](=O)[O-])cc1[N+](=O)[O-] (stereo unspecified)
A) > 200 µM

Q) Report EC50 from CEM cells HIV-1 protection, formazan growth assay testing of Cc1cc(S(=O)(=O)Nc2nc3cc(-c4ccc(Cl)cc4)sc3c(=O)n2N)c(S)cc1Cl
A) > 200 µM

Q) Report EC50 from CEM cells HIV-1 protection, formazan growth assay testing of N=c1c2ccccc2sc2nc3ccccc3n12
A) > 52.5 µM

Q) Report EC50 from CEM cells HIV-1 protection, formazan growth assay testing of O=C(/C=C/c1ccccc1)Oc1cccc(O)c1
A) > 200 µM

Q) Report EC50 from CEM cells HIV-1 protection, formazan growth assay testing of O=P(OC1=CCCCC1)(c1ccccc1)c1ccccc1
A) > 200 µM

Q) Report EC50 from CEM cells HIV-1 protection, formazan growth assay testing of Cc1cc2c(C(C)C)c(O)c(O)c(C=O)c2c(O)c1-c1c(C)cc2c(C(C)C)c(O)c(O)c(C=O)c2c1O
A) > 200 µM

Q) Report EC50 from CEM cells HIV-1 protection, formazan growth assay testing of CC1(C2=CCCCC2)CCC(=O)NC1=O (stereo unspecified)
A) > 200 µM

Q) Report EC50 from CEM cells HIV-1 protection, formazan growth assay testing of NS(=O)(=O)c1ccc(SSc2ccc(S(N)(=O)=O)cc2[N+](=O)[O-])c([N+](=O)[O-])c1
A) 30.9 µM

Q) Report EC50 from CEM cells HIV-1 protection, formazan growth assay testing of C[n+]1c2ccccc2n2c3ccccc3c(NCCCN3CCOCC3)c(C#N)c21
A) > 20 µM

Q) Report EC50 from CEM cells HIV-1 protection, formazan growth assay testing of CC(=O)Oc1cc(OC(C)=O)c2c(C)cc(=O)oc2c1
A) > 200 µM

Q) Report EC50 from CEM cells HIV-1 protection, formazan growth assay testing of CCCCCCCCOC1C(O)C(O)C(O)C(O)C12CO2 (stereo unspecified)
A) > 200 µM

Q) Report EC50 from CEM cells HIV-1 protection, formazan growth assay testing of COc1c2occc2c(S(=O)(=O)O)c2ccc(=O)oc12
A) > 302 µM

Q) Report EC50 from CEM cells HIV-1 protection, formazan growth assay testing of O=Cc1ccc2c(c1I)OCO2
A) > 67.6 µM

Q) Report EC50 from CEM cells HIV-1 protection, formazan growth assay testing of O=C(O)C1C(c2c3ccc(=O)c(O)c-3oc3c(O)c(O)ccc23)C2(Cl)C(Cl)=C(Cl)C1(Cl)C2(Cl)Cl (stereo unspecified)
A) > 151 µM

Q) Report EC50 from CEM cells HIV-1 protection, formazan growth assay testing of CC(=O)CCCCCCCCCCCC[C@@H]1CC[C@H](C)[C@H](O)N1
A) > 21.9 µM

Q) Report EC50 from CEM cells HIV-1 protection, formazan growth assay testing of CCc1c(-c2coc(CC/C(C)=C/c3ccccc3)n2)oc(OC)c(C)c1=O
A) > 9.55 µM

Q) Report EC50 from CEM cells HIV-1 protection, formazan growth assay testing of COc1ccc(-c2c(C#N)c(S)n(NS(=O)(=O)c3ccc(C)cc3)c(=O)c2C#N)cc1
A) > 200 µM

Q) Report EC50 from CEM cells HIV-1 protection, formazan growth assay testing of CC(=O)NC(CC(C)C(C)=O)C(=O)O (stereo unspecified)
A) > 200 µM

Q) Report EC50 from CEM cells HIV-1 protection, formazan growth assay testing of N#CC(c1ccccc1)[P+](c1ccccc1)(c1ccccc1)c1ccccc1 (stereo unspecified)
A) > 200 µM

Q) Report EC50 from CEM cells HIV-1 protection, formazan growth assay testing of CSc1ccc(NC(=O)Nc2cc(C)ccn2)cc1
A) > 200 µM

Q) Report EC50 from CEM cells HIV-1 protection, formazan growth assay testing of Cc1c2ccccc2nc(CSOCCO)[n+]1[O-]
A) > 200 µM

Q) Report EC50 from CEM cells HIV-1 protection, formazan growth assay testing of N#CCN1c2ccccc2CCC1Cl (stereo unspecified)
A) > 200 µM

Q) Report EC50 from CEM cells HIV-1 protection, formazan growth assay testing of COc1ccc2c3c(c4cc(OC)c(OC)cc4c2c1)C[C@H]1CCCCN1C3
A) > 31.6 µM

Q) Report EC50 from CEM cells HIV-1 protection, formazan growth assay testing of Cc1cc(N2CCCC2)c([N+](=O)[O-])cc1[N+](=O)[O-]
A) > 200 µM

Q) Report EC50 from CEM cells HIV-1 protection, formazan growth assay testing of Oc1[nH]c2ccccc2c1N=NC(=S)N1CCCCC1
A) > 200 µM

Q) Report EC50 from CEM cells HIV-1 protection, formazan growth assay testing of CN(C)CC1CCCC1=O (stereo unspecified)
A) > 200 µM

Q) Report EC50 from CEM cells HIV-1 protection, formazan growth assay testing of COC(=O)C1CCC(=O)N1C(c1ccc(OC)cc1)c1ccc2c(c1)OCO2 (stereo unspecified)
A) > 200 µM

Q) Report EC50 from CEM cells HIV-1 protection, formazan growth assay testing of COc1c(N2CCCCC2)c2c(=O)c3ccccc3oc2c2c3ccccc3n(C)c12
A) 170 µM

Q) Report EC50 from CEM cells HIV-1 protection, formazan growth assay testing of CN(C)c1nc(N)c(C#N)c(C#N)c1C#N
A) > 200 µM

Q) Report EC50 from CEM cells HIV-1 protection, formazan growth assay testing of COc1ccccc1NC(=O)C(/C=N/C(=S)NNC(C)=O)=C(/C)O
A) > 200 µM

Q) Report EC50 from CEM cells HIV-1 protection, formazan growth assay testing of O=c1c(-c2ccccc2)c(SCCO)n(-c2ccccc2)c(=S)n1-c1ccccc1
A) > 200 µM

Q) Report EC50 from CEM cells HIV-1 protection, formazan growth assay testing of O=c1[nH]c(=S)[nH]c2c1CN(CCCN1CCOCC1)CN2
A) > 794 µM

Q) Report EC50 from CEM cells HIV-1 protection, formazan growth assay testing of CC1(CC(O)(C(F)(F)F)C(F)(F)F)NC(=O)NC1=O (stereo unspecified)
A) > 200 µM

Data provenance is PubChem BioAssay AID179.
